tested on: human NMT1 versus Trypanosoma brucei NMT; experiment: Selectivity ratio of IC50 for human NMT1 to IC50 for Trypanosoma brucei NMT; format: toxicity; settings: read-out: Ratio IC50
Assay Endpoint: selectivity ratio

>>> df
                              smiles_record     assay_endpoint  data_value
0  CC(C)Cc1ccc2nn(C)cc2c1NS(=O)(=O)c1ccc(Br)cc1  selectivity ratio        > 91
1  COC(=O)c1ccc(N2CCCC2)c(NS(=O)(=O)c2ccc(OC)cc2)c1  selectivity ratio       > 100
2  Cn1cc2c(NS(=O)(=O)c3ccc(Br)cc3)c(N3CCCC3)ccc2n1  selectivity ratio       > 3.7
3  Cn1cc2c(NS(=O)(=O)c3ccc(Br)cc3)c(CC3CCCCC3)ccc2n1  selectivity ratio        > 59
4  Cn1cc2c(NS(=O)(=O)c3ccc(Br)cc3)c(C3CCCCC3)ccc2n1  selectivity ratio       > 5.9
5  O=S(=O)(Nc1c(C2CCCCC2)ccc2ncccc12)c1ccc(Br)cc1  selectivity ratio       > 1.6
6  COC(=O)c1ccc(N2CCCC2)c(NS(=O)(=O)c2ccc(Br)cc2)c1  selectivity ratio       > 100
7    Cn1cc2c(NS(=O)(=O)c3ccc(Br)cc3)cccc2n1  selectivity ratio       > 3.7

Ref: ChEMBL document CHEMBL4229565
